In this section, each of the compounds is paired with its reported log10 of LC50.
System: A549
Assay: Cytotoxicity against human A549 cells after 48 hrs by SRB assay
Format: functional, cell-based
Conditions: Homo sapiens, A549, 48 h
test.readout: log10 of LC50 (log10 of the value in µM)

[[record]]
chemical_structure = "C/C=C1\\NC(=O)[C@H](Cc2ccccc2)NC(=O)[C@@H](C(C)C)NC(=O)[C@@H]([C@H](C)CC)NC(=O)[C@H](NC(=O)[C@H](NC(=O)[C@H](CCCN)NC(=O)[C@H]2CCCN2C(=O)[C@H](NC(=O)[C@@H](NC(=O)[C@@H](NC(=O)[C@H](NC(=O)CCCNC(=N)N)C(C)C)[C@@H](C)O)C(C)C)C(C)C)[C@H](C)CC)[C@H](C)OC(=O)[C@H](C(C)C)NC1=O"
test_readout = "log10 of LC50"
observed = 0.28

[[record]]
chemical_structure = "C/C=C1\\NC(=O)[C@H](Cc2ccccc2)NC(=O)[C@@H](C(C)C)NC(=O)[C@@H]([C@H](C)CC)NC(=O)[C@H](NC(=O)[C@H](NC(=O)[C@H](CCCN)NC(=O)[C@H]2CCCN2C(=O)[C@H](NC(=O)[C@@H](NC(=O)[C@@H](NC(=O)[C@@H](CCCN)NC(=O)CCCC(C)C)[C@@H](C)O)C(C)C)C(C)C)[C@H](C)CC)[C@H](C)OC(=O)[C@H](C(C)C)NC1=O"
test_readout = "log10 of LC50"
observed = 0.58

[[record]]
chemical_structure = "C/C=C1\\NC(=O)[C@H](Cc2ccccc2)NC(=O)[C@@H](C(C)C)NC(=O)[C@@H]([C@H](C)CC)NC(=O)[C@H](NC(=O)[C@H](NC(=O)[C@H](CCCN)NC(=O)[C@H]2CCCN2C(=O)[C@H](NC(=O)[C@@H](NC(=O)[C@@H](NC(=O)[C@@H](CCC(=O)O)NC(=O)CCCC(C)C)[C@@H](C)O)C(C)C)C(C)C)[C@H](C)CC)[C@H](C)OC(=O)[C@H](C(C)C)NC1=O"
test_readout = "log10 of LC50"
observed = 0.26

[[record]]
chemical_structure = "C=C1NC(=O)[C@H](Cc2ccccc2)NC(=O)[C@@H](C(C)C)NC(=O)[C@@H]([C@H](C)CC)NC(=O)[C@H](NC(=O)[C@H](NC(=O)[C@H](CCCN)NC(=O)[C@H]2CCCN2C(=O)[C@H](NC(=O)[C@@H](NC(=O)[C@@H](NC(=O)[C@H](NC(=O)CCCC(C)C)C(C)C)[C@@H](C)O)C(C)C)C(C)C)[C@H](C)CC)[C@H](C)OC(=O)[C@H](C(C)C)NC1=O"
test_readout = "log10 of LC50"
observed = 0.03

[[record]]
chemical_structure = "C/C=C1\\NC(=O)[C@H](Cc2ccccc2)NC(=O)[C@@H](CCC2CCCCC2)NC(=O)[C@@H](CCC2CCCCC2)NC(=O)[C@H](NC(=O)[C@@H](CCC2CCCCC2)NC(=O)[C@H](CCCN)NC(=O)[C@H]2CCCN2C(=O)[C@H](NC(=O)[C@@H](NC(=O)[C@@H](NC(=O)[C@H](NC(=O)CCCC(C)C)C(C)C)[C@@H](C)O)C(C)C)C(C)C)[C@H](C)OC(=O)[C@H](C(C)C)NC1=O"
test_readout = "log10 of LC50"
observed = -0.65

